Taken from the supplement of paper PMC6555819.

- System: LXRb:RXRa (NR concentration 270 nM, RXRa partner concentration 90 nM)
- experiment_notes: PBM binding z-score (relative to random genomic background probes); higher = stronger binding; sequences stand for … in GC…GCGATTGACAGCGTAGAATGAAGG
Answer criterion not met if PBM binding z-score is under 1, and criterion met if it is 1 or more.

Examples from the recorded data:
{"columns": ["sequence_string", "group_label"],
 "data": [
  ["TCATATAGGTAAACGCTAGGTGAAAGTCCGATCT", "criterion not met"],
  ["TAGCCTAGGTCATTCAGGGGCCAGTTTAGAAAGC", "criterion met"],
  ["ATCTCTAGGTAAAAATAGTTCAGTGAATGCAAAT", "criterion not met"],
  ["CGTCCAAGGTCATAGGAGGTCAGCGAAGACAGAT", "criterion met"],
  ["AATACAGGGTCATTGTAGGCCAGAGTACGCACAG", "criterion met"],
  ["CGAACTGGGTCAGAACAGGACAGTGAAGGATGAT", "criterion not met"],
  ["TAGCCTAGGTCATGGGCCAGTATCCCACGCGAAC", "criterion met"],
  ["GGAACGAGGGCAAAGTTGATCGCATCTGTCGACG", "criterion not met"]
]}

Query: Determine whether measured PBM binding z-score meets or exceeds 1 for CAAACTAGGTCTAGGTCAAAGTCGGTTTGTGCCA
Response: criterion met

Query: hey, is PBM binding z-score for this one >= 1? TTACCAAGGTGAGCAGAGGTCGTTGATCCAACTC
Response: criterion met

Query: Could you verify whether the entry CGTCCAAGGTCAATGCTAGGTCGGTGAAAGCATT shows PBM binding z-score of no less than 1?
Response: criterion met

Query: Test whether the sequence TATACAGGGTCAAAGGCTAGAGTACGAATGTCGA records PBM binding z-score of 1 or higher.
Response: criterion met

Query: Exam item: decide whether the reported PBM binding z-score for TCATAGAGGTAAAGGTGAAAGTCGAACGATATGA is at least 1.
Response: criterion met

Query: Hi, just wondering whether AGAACGAGGGCAATGAGTTGATAACACGGGTGGC shows PBM binding z-score of 1 or higher.
Response: criterion not met

====

- Tested on: LXRb homodimer (NR concentration 270 nM)
- experiment_notes: PBM binding z-score (relative to random genomic background probes); higher = stronger binding; sequences stand for … in GC…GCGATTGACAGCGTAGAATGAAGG
The following sequences are shown together with reported PBM binding z-score values.

Example entries begin here.
{"columns": ["sequence_string", "subject_of_test", "recorded_result"],
 "data": [
  ["ACTCGTAGGACAAAGGTCAGAGCTACGCCAGTGA", "LXRb homodimer (NR concentration 270 nM)", 0.607],
  ["GCTGATAGGTCAGGTTGGTCAGCTAACGGGTACG", "LXRb homodimer (NR concentration 270 nM)", 0.114],
  ["TCTCGGAGGACACGAAGGGCAGAGCTTTCCAGAG", "LXRb homodimer (NR concentration 270 nM)", -1.26],
  ["CTCGAAAGGTCGTGCTCAGGTGAGTAGACCAAAC", "LXRb homodimer (NR concentration 270 nM)", 0.0468],
  ["TCATATAGGTACATGCTAGGTGAAAGTCCGATCT", "LXRb homodimer (NR concentration 270 nM)", 0.134]
]}

Query: Identify PBM binding z-score associated with the sequence TCTAGTTGGTCACGGAGGTCACACACGACGGGTA
Response: 0.773

Query: Give recorded PBM binding z-score. CGAACTAGGTCAACCAGGACAGTGAATACATTGA
Response: 0.00788

Query: Fill in reported PBM binding z-score for this entry: AATACAGGGTCACTAGGCCAGAATAGGTACGAAT
Response: 1.02

Query: Read the entry CGAACTAGGTCATCCAGGACAGTAAATACATTGA and write its reported PBM binding z-score.
Response: 0.21
